assay_remarks: protease stability score; higher = more stable; yeast display proteolysis, trypsin and chymotrypsin;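 also: relative to predicted unfolded state with 0 unfolded-like and 1 meaning tenfold more protease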
Binary call on protease stability score: Met from 1 upward, Not met beneath that.

Reference set, count: 3
HRVETEAHHMMKLLEHWLQTGDEEMWKTYADPDVRIDVDGKTLHGRDNFEHVLRMYGIKHRHIRDSHYHFIGDYLHYNLDVEVHFNGKDLKTHFTFQIRKVDGRWELERVHIRVH | Not met
SEDDRDAEKMSKDWIHLMLTGDEDHLRELLDPNVRMEQGDKEFIGRELLVEVFSRTVKHLGIKHIQLEESRTNVQGEKVIVILIMDYRAENRRVEFHIHLIVDKVNGRWLVQSVRFRFK | Met
SEDEHEALKVSEQFIRDLLTGDEDTFNRLADPNTRSEVGNKRQHGMDEVTHLWKELRIEDFTLRDQKIRIIGDKAEIDMDGEMVIIVNGKRVVQRVTLHLRVRKINGRWILHSIKLHIE | Met

In the following, a different sequence is considered.
Identify whether the reported protease stability score of the following sequence is 1 or greater: KEEEELVKKMLDLLVEAWETGDWKLLDHLLDPNVKLEVDGVLHIGREEAVRVMLEFHKRVDHVEVRDRDFRIQGEKVRHEVELRLHQGEFHVITRIEIEVTKVNGRWQMKHIRIE
Met

----------
Give protease stability score for every item shown.
assay_remarks: protease stability score; higher = more stable; yeast display proteolysis, trypsin and chymotrypsin;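 also: relative to predicted unfolded state with 0 unfolded-like and 1 meaning tenfold more protease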
Answers are plain numbers.

Example entries begin here.
SHVKEIIRHFFDELVRRRETGDEEVLKELADPHTRLRVGEKEIHGWDEILTRFITWLEIHGAEYTDHRIHDIRVVGEKVHVESEIDIDYNGKHVEHHFEIVVEKINGRWRMKSIFVS | 1.27
DETDEHAHKMFEIIIHYLLTGDWKELIKLADPHVKLEFDINGKTIDLVGRELFTEFFLRFKNVRSEIDDVRHIGDKNHARVRVNWDGRDTEVQIDIVIIDGVVHRVRLIFK | 2.59
DEERELLDHLAKFILSVVRTGDWESMLRMADPNARIQIDGREYHGMDFFIRHWWELGIDHERIDKIDIQGDKLFIHRTLEYDGQEIDSELYIIVINGKLKSIDIRIR | 0.764
SDEEREFDIAFHLMRHVERTGDPHDMTKMADPNVRVDINGVEVVGREQLREEMRKLGVKYSHVEDFRTFDGRVILHGTLEINGQRRNTEIYASKINGRWHVEEYRFR | 1.14
DEEEEELKQHLHEILHSIMTGDWRSLRHLIDPNVRLDIGDKTYHGREDFLTWVKHLIDKIPNVKFEIKHIRIVGEKVIMNIVVKINGVEHTRHLIADKIDGKWFISSTEVH | 1.76

Go through the items and report each one's protease stability score.
1. TEEEELLTRLARQILRWLLTGDEDKHSRMLDPRDRSVIGDKESVGMEESVKNWRIWLEEMRLKHVQLRDVRIVDGVVHLDIHLFGHINGVHIDRESRMDVYIVNGRIHRIRIIEH
2. SEIEEELSSDRRDFIRAVLTGDFERHIEQMDPNVKLIFNGKEFHGREEVHRSWEELIDRWGVDKFEYRIEDMEHFPGHLMIHGTLNYNGKRERVIIYAVKFNGRWRVERVEIK
3. DKEDEDIKHLVDRIIHFWETGDFESLLKNVDPNARVEEIFNGKKYHSHGREEFERTLQEWLDRYKNVTIHIREVRMFNGVAIIHAELLIGDKRHEVHLHWFIYDGVLRHVRIQFE
4. KESEEDARKFWEKMVEDNRTGDWDSFEKLVDPHVKMLFNGREYHGRDELLDLFRHIRFKDHEIHDMKVIGNKVRMDTRVHLNVNGREISVDTHLVVEKINGRWVLHSVLFH
5. SEEEKEDWEWMEIFYDALHTGDEKLIRDNADPNVKFRQGDYHSVGREEYIRKIDELRRRLGITKIRLEIDHVEVINGRSNVDTTIHVNGREIRSTLHVQVVNGRIKEIEIHLR

1.3
1.55
1.49
1.62
1.04

# lookup: protease stability score of STEEEEAKKFSDIVLKAFDTGDEDLYRDLADPDTRSIINGVEKHGWKDIARHIKRIDHSDTHWDRVEMRVVNGQARVHVKGHIDVTIDGQRFVLRVTWHIIVTKIDGRWHLEELSLEVS
1.31
